Values were extracted from PubChem BioAssay AID463199.

AC50 for assorted molecules
- System: S. cerevisiae Burl-1 ts mutant growth, BacTiter-Glo, 38.5C 24 h
- Experiment: restored growth of temperature-sensitive Burl-1 yeast – whole organism, S. cerevisiae, Burl-1 ts mutant, luminescence, counter-screen for SUMOylation pathway inhibitor project, dose response (AID 463199)
The source made the active and inactive calls.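 The calls were made as follows: active = AC50, the dose giving half-maximal effect, exceeds a fixed cutoff for a compound that rescues yeast growth under heat; inactive = the rest, inconclusive results apart.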

Molecule | Target Or Test System | AC50
CCCCCC(=O)Nc1nnn(CCC)n1 | S. cerevisiae Burl-1 ts mutant growth, BacTiter-Glo, 38.5C 24 h | > 42 µM (inactive)
C/C(N)=C(/C#N)C(=O)CSc1nnc(-c2ccccc2)n1C | S. cerevisiae Burl-1 ts mutant growth, BacTiter-Glo, 38.5C 24 h | > 42 µM (inactive)
Cn1c(CCN2CCOCC2)nc2cc(NC(=O)COc3ccccc3)ccc21 | S. cerevisiae Burl-1 ts mutant growth, BacTiter-Glo, 38.5C 24 h | > 42 µM (inactive)
CCCc1ccc(S(=O)(=O)NCCc2ccncc2)cc1 | S. cerevisiae Burl-1 ts mutant growth, BacTiter-Glo, 38.5C 24 h | > 42 µM (inactive)
O=C(NCCCn1ccnc1)Nc1cccc2ccccc12 | S. cerevisiae Burl-1 ts mutant growth, BacTiter-Glo, 38.5C 24 h | > 42 µM (inactive)
CCN1C(=S)N[C@@H](CCc2ccccc2)C(C(=O)OC)=C1C | S. cerevisiae Burl-1 ts mutant growth, BacTiter-Glo, 38.5C 24 h | > 42 µM (inactive)
CN(C)c1ccc(C(CNS(=O)(=O)c2ccc([N+](=O)[O-])cc2)N2CCOCC2)cc1 (stereo unspecified) | S. cerevisiae Burl-1 ts mutant growth, BacTiter-Glo, 38.5C 24 h | > 42 µM (inactive)
CCOC(=O)c1sc(NC(=O)CSc2n[nH]c(-c3ccccc3)n2)c(C#N)c1C | S. cerevisiae Burl-1 ts mutant growth, BacTiter-Glo, 38.5C 24 h | > 42 µM (inactive)
CC1CC(C)(C)N(C(=O)CN2C(=O)CCC2=O)c2ccccc21 (stereo unspecified) | S. cerevisiae Burl-1 ts mutant growth, BacTiter-Glo, 38.5C 24 h | > 42 µM (inactive)
COc1ccc(NC(=O)CN(c2ccc(C(C)C)cc2)S(=O)(=O)c2c(C)noc2C)cc1OC | S. cerevisiae Burl-1 ts mutant growth, BacTiter-Glo, 38.5C 24 h | > 42 µM (inactive)
O=C(OCc1ccccc1)c1cccc(-c2nnn(Cc3ccccc3)n2)c1 | S. cerevisiae Burl-1 ts mutant growth, BacTiter-Glo, 38.5C 24 h | > 42 µM (inactive)
